Consider the following molecules; for each one, report its pIC50.
Target: Deoxyhypusine synthase (Homo sapiens, UniProt P49366)
Sequence (P49366 whole entry): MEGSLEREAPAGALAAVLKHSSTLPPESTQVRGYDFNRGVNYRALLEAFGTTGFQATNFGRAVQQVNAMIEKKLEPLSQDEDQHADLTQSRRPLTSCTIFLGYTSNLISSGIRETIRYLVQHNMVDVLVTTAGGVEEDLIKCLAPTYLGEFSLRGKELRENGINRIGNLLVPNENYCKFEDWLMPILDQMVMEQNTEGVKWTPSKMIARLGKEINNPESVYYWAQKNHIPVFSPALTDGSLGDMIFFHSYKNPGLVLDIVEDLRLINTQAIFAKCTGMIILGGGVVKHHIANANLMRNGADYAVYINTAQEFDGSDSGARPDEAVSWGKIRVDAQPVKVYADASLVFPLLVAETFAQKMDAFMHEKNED
Experiment: Inhibition of human N-terminal His6-tagged TEV protease site linked DHPS expressed in Escherichia coli BL21 (DE3) assessed as reduction in radiolabelled amino-butylidene incorporation in eIF5A using [3H]Spermidine trichloride as substrate after 90 to 120 mins in presence of eIF5A and 14 uM NAD+ by Topcount scintillation counting method
Give bare numbers, as −log10 of the molar value.

CC(C)(C)c1ccc(NC(=O)c2cccc3[nH]ccc23)cc1; 4.00
CC(C)(C)c1ccc(C(=O)Nc2cccc3[nH]ncc23)cc1; 4.66
O=C(Nc1cccc2[nH]ccc12)c1cc2ccc(Cl)cc2s1; 6.92
O=C(Nc1cccc2[nH]ccc12)c1cc2ccccc2s1; 5.64

Please find the next molecule below.
Q) API: value(readout= pIC50, system= Deoxyhypusine synthase (Homo sapiens, UniProt P49366), query= CC(C)(C)c1ccc(C(=O)Nc2cccc3[nH]ccc23)cc1 )
A) 6.08
